Experimental system: GST-Nv-NF-kB (Ser allele) (Nematostella vectensis, UniProt A7UNT2 2-411)
Sequence: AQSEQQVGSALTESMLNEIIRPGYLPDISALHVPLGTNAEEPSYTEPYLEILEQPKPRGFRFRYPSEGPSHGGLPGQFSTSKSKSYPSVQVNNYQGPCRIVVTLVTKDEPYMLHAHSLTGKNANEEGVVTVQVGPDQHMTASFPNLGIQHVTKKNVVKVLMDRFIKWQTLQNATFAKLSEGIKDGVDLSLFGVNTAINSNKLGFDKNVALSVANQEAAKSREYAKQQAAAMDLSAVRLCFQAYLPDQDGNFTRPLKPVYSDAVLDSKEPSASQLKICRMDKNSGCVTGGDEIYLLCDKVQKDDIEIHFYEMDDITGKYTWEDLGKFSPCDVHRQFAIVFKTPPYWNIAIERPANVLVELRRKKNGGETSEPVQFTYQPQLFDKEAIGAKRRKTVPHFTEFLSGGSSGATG
Assay notes: protein-binding microarray (PBM); PBM: ~300 nM protein, 6 mM HEPES pH 7.8, 80 mM KCl, 0.5 mM EDTA, 0.5 mM EGTA, 6% glycerol, 35 ng/ul poly-dIdC, 1% milk, 1 h, room temperature; Ap Aiptasia and Nv Nematostella (sea anemones) / Co Capsaspora / Aq Amphimedon (sponge) / Dm Drosophila / Hu human; RHD is the Rel homology domain; high values mean tight binding
Condition set: dsDNA, one strand shown
Assay endpoint: binding signal (z-score)
Give the quantity in z-score, number only.

Return binding signal (reported value) for this sequence: `CCGATTAACATCACGAATTCCCCTGATGTTAATCGGGTCTTGATTCGCTTGACGCTGCTG`
10.9

Return binding signal (reported value) for this sequence: `CCGATTAACATCAAATCTCCCCCTGATGTTAATCGGGTCTTGATTCGCTTGACGCTGCTG`
9.76

Return binding signal (reported value) for this sequence: `CCGATTAACATCAAACTTCCCCCTGATGTTAATCGGGTCTTGATTCGCTTGACGCTGCTG`
9.14

Return binding signal (reported value) for this sequence: `CCGATTAACATCAGGGGAATACCTGATGTTAATCGGGTCTTGATTCGCTTGACGCTGCTG`
10.1

Return binding signal (reported value) for this sequence: `CCGATTAACATCACTAGTTTCCCTGATGTTAATCGGGTCTTGATTCGCTTGACGCTGCTG`
4.61

Return binding signal (reported value) for this sequence: `CCGATTAACATCAGGGGTTCCCATGATGTTAATCGGGTCTTGATTCGCTTGACGCTGCTG`
1.37

Return binding signal (reported value) for this sequence: `CCGATTAACATCAGGGGTAACACTGATGTTAATCGGGTCTTGATTCGCTTGACGCTGCTG`
1.27

Return binding signal (reported value) for this sequence: `CCGATTAACATCATGGGGGAAAATGATGTTAATCGGGTCTTGATTCGCTTGACGCTGCTG`
9.23

Return binding signal (reported value) for this sequence: `CCGATTAACATCAAACGCCCCCCTGATGTTAATCGGGTCTTGATTCGCTTGACGCTGCTG`
3.85

Return binding signal (reported value) for this sequence: `CCGATTAACATCAAGGGGAATAATGATGTTAATCGGGTCTTGATTCGCTTGACGCTGCTG`
8.1

Return binding signal (reported value) for this sequence: `CCGATTAACATCAAAAGTCCCCGTGATGTTAATCGGGTCTTGATTCGCTTGACGCTGCTG`
7.85

Return binding signal (reported value) for this sequence: `CCGATTAACATCATCAGGGGAAATGATGTTAATCGGGTCTTGATTCGCTTGACGCTGCTG`
8.79

Return binding signal (reported value) for this sequence: `CCGATTAACATCAAGAGATTCCCTGATGTTAATCGGGTCTTGATTCGCTTGACGCTGCTG`
3.73

Return binding signal (reported value) for this sequence: `CCGATTAACATCAGGAAAGTACCTGATGTTAATCGGGTCTTGATTCGCTTGACGCTGCTG`
8.2

Return binding signal (reported value) for this sequence: `CCGATTAACATCAGGGAAATCAATGATGTTAATCGGGTCTTGATTCGCTTGACGCTGCTG`
4.65

Return binding signal (reported value) for this sequence: `CCGATTAACATCACGGGGAATTATGATGTTAATCGGGTCTTGATTCGCTTGACGCTGCTG`
9.51

Return binding signal (reported value) for this sequence: `CCGATTAACATCACTATATTCCCTGATGTTAATCGGGTCTTGATTCGCTTGACGCTGCTG`
3.56

Return binding signal (reported value) for this sequence: `CCGATTAACATCAAGGGGATTTATGATGTTAATCGGGTCTTGATTCGCTTGACGCTGCTG`
11.3
